Origin of values: PubChem BioAssay AID489008

# target entity: Ferritin light chain (Equus caballus) (UniProt P02791)
# Sequence (P02791 2-175 limits assumed): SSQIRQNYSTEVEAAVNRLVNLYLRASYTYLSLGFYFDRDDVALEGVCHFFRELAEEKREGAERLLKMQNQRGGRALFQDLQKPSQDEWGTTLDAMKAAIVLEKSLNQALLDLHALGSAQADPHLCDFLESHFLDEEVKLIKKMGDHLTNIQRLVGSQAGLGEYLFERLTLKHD
# assay text: Confirmation Assay for Identification of Novel General Anesthetics; also: potency is read from the fitted curve at half-maximal effect; nearly all actives have a fitted effect of over 40% in size
# experimental setup: apoferritin 1-aminoanthracene fluorescence displacement
Inconclusive results are not listed. Active and inactive are the calls of the source. Calls follow the shape of the dose curve; as a rule, active = well fitted inhibition curve with a large enough effect; inconclusive = small, poorly fitted or top-dose-only effect; inactive = flat fitted curve, though single readings scatter.
The compounds listed here are annotated with their Potency.
quantity name: Potency

[[record]]
compound = "CC(C(=O)c1cn(C)c2ccccc12)c1ccccc1 (stereo not given)"
target_entity = "Ferritin light chain (Equus caballus) (UniProt P02791)"
quantity_name = "Potency"
obs_value = "35.5 µM (active)"

[[record]]
compound = "Nc1ccc(Oc2cccc(Oc3ccc(N)cc3)c2)cc1"
target_entity = "Ferritin light chain (Equus caballus) (UniProt P02791)"
quantity_name = "Potency"
obs_value = "31.6 µM (active)"

[[record]]
compound = "O=C(Cn1nc(-c2ccccc2)ccc1=O)N1CCC2(CC1)OCCO2"
target_entity = "Ferritin light chain (Equus caballus) (UniProt P02791)"
quantity_name = "Potency"
obs_value = "15.8 µM (active)"

[[record]]
compound = "CCN(CC)C(=O)Oc1ccc(Cl)c2ccccc12"
target_entity = "Ferritin light chain (Equus caballus) (UniProt P02791)"
quantity_name = "Potency"
obs_value = "31.6 µM (active)"

[[record]]
compound = "c1ccc(C2CC3CC4(CCCC4)N2O3)cc1 (stereo not given)"
target_entity = "Ferritin light chain (Equus caballus) (UniProt P02791)"
quantity_name = "Potency"
obs_value = "7.94 µM (active)"

